measured.on: NMDA Receptor (MK-801 binding site)
procedure.summary: PDSP radioligand binding, NMDA receptor
settings: Table 2; read-out: NMDA (Ki) (converted)
For each of the compounds below, state its Ki.
One number for each entry, in nM.

Here are 4 compounds. What values of Ki were reported for them?
1. COc1cccc(C2(N3CCCCC3)CCCCC2)c1
2. COc1ccc(C2(N3CCCCC3)CCCCC2)cc1
3. CCNC1(c2cccc(OC)c2)CCCCC1
4. c1ccc(C2(N3CCCCC3)CCCCC2)cc1 [Phencyclidine, reference compound]

*A*
20
404
61
59

---

measured.on: A2B4 (Rattus norvegicus, UniProt P12389+P12392)
procedure.summary: PDSP radioligand binding, nicotinic receptor α2 ß4
For each of the molecules below, state its Ki.

CCNC1(c2cccc(OC)c2)CCCCC1=O (racemic) | > 10 µM

Here are 2 molecules. What values of Ki were reported for them?
1. COc1cccc(C2(N3CCCCC3)CCCCC2)c1
2. COc1ccc(C2(N3CCCCC3)CCCCC2)cc1

*A*
> 10 µM
> 10 µM

---

measured.on: Alpha2C (Homo sapiens, UniProt P18825)
Sequence (P18825 whole entry): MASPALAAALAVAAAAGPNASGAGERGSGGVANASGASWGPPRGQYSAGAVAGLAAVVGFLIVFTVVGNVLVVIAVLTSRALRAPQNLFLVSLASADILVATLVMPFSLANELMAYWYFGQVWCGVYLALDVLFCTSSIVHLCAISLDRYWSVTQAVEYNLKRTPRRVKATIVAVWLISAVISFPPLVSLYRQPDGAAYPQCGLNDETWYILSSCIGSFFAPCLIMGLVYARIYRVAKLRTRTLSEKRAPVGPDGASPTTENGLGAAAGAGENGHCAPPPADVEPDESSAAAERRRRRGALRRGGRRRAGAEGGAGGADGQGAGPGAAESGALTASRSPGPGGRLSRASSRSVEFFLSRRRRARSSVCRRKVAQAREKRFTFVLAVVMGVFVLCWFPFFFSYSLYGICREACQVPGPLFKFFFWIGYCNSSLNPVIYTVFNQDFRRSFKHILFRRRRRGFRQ
procedure.summary: PDSP radioligand binding, adrenoceptor α2C
pKi: −log10 of the molar value.
assay.readout: pKi

COc1cccc(C2(N3CCCCC3)CCCCC2)c1 | < 5.00
COc1ccc(C2(N3CCCCC3)CCCCC2)cc1 | < 5.00

*Q* Report pKi, nothing else, for this compound: CCNC1(c2cccc(OC)c2)CCCCC1=O (racemic)
*A* < 5.00

---

measured.on: UniProtKB P21554
Sequence (P21554 whole entry, species assumed): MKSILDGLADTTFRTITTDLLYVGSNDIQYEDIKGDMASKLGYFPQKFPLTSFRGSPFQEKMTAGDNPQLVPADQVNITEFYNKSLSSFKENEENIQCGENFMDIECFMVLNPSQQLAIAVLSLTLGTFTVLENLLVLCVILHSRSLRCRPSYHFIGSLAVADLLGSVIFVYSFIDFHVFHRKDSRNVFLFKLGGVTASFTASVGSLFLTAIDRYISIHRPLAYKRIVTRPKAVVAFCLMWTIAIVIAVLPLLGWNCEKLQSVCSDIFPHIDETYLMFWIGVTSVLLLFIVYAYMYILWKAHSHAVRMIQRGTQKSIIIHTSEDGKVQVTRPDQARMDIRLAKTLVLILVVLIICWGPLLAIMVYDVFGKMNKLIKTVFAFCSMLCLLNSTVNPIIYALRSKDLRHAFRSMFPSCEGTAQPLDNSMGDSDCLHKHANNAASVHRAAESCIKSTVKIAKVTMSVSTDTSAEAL
procedure.summary: PDSP radioligand binding, cannabinoid CB-1
pKi: −log10 of the molar value.
assay.readout: pKi

Please review the entries below; each comes with its answer.
CCNC1(c2cccc(OC)c2)CCCCC1=O (racemic) | < 5.00
COc1ccc(C2(N3CCCCC3)CCCCC2)cc1 | < 5.00

Here is another molecule to look at.
*Q* Report pKi, nothing else, for this molecule: `COc1cccc(C2(N3CCCCC3)CCCCC2)c1`
*A* < 5.00

---

Lab note: Ki readings collected with Beta3 (Homo sapiens, UniProt P13945) for the following compounds.
Sequence (P13945 whole entry): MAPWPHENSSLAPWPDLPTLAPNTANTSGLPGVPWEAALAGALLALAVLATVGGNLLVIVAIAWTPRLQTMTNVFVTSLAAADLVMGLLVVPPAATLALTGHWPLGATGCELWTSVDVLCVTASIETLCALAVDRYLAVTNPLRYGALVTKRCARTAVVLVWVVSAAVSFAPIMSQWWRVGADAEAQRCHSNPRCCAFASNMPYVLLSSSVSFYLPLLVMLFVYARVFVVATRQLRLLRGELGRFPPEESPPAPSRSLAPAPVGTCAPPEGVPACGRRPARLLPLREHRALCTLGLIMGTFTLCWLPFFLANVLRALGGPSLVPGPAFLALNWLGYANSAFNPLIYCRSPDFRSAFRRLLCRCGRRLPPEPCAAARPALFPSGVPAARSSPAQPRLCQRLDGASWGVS

CCNC1(c2cccc(OC)c2)CCCCC1=O (racemic) [Methoxetamine] | > 10 µM
COc1ccc(C2(N3CCCCC3)CCCCC2)cc1 [4-MeO-PCP] | > 10 µM

Here is another compound to look at.
*Q* Report Ki, nothing else, for this compound: COc1cccc(C2(N3CCCCC3)CCCCC2)c1 [3-MeO-PCP]
*A* > 10 µM

---

measured.on: H1 (Homo sapiens)
Sequence (P35367 whole entry): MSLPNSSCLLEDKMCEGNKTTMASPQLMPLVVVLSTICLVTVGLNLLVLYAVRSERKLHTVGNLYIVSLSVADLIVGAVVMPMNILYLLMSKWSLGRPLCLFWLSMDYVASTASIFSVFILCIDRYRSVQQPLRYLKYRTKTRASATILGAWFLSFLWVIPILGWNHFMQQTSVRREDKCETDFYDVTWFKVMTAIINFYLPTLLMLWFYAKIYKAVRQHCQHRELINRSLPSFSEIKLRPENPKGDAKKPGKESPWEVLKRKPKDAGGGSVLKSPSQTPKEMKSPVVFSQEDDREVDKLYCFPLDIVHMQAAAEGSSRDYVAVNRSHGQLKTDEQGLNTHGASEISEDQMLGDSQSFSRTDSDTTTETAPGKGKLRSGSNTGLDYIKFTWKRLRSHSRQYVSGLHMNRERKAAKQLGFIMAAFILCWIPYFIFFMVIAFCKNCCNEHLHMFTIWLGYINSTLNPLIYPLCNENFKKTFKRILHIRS
procedure.summary: PDSP radioligand binding, histamine receptor H1
assay.readout: Ki

Please review the entries below; each comes with its answer.
CCNC1(c2cccc(OC)c2)CCCCC1=O (racemic) | 2.96 µM
COc1cccc(C2(N3CCCCC3)CCCCC2)c1 | > 10 µM

Here is another compound to look at.
*Q* Report Ki, nothing else, for this compound: `COc1ccc(C2(N3CCCCC3)CCCCC2)cc1`
*A* > 10 µM

---

For each of the compounds below, state its Ki.
measured.on: Sigma2 (Homo sapiens, UniProt Q5BJF2)
Sequence (Q5BJF2 whole entry): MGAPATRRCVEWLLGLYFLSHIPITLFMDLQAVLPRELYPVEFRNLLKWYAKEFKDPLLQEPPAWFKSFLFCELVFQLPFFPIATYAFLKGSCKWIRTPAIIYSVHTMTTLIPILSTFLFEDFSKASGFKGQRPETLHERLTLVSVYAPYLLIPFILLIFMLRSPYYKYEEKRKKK
procedure.summary: PDSP radioligand binding, Sigma2
settings: Sigma2 (Ki, nM), Table 2
Numbers only, in nM.

c1ccc(C2(N3CCCCC3)CCCCC2)cc1 [Phencyclidine, reference compound] | 136

Here is another compound to look at.
*Q* Report Ki, nothing else, for this compound: CCNC1(c2cccc(OC)c2)CCCCC1 [3-MeO-PCE]
*A* 525

---

Lab note: Ki readings collected with D4 (Homo sapiens) for the following compounds.
Sequence (P21917 whole entry): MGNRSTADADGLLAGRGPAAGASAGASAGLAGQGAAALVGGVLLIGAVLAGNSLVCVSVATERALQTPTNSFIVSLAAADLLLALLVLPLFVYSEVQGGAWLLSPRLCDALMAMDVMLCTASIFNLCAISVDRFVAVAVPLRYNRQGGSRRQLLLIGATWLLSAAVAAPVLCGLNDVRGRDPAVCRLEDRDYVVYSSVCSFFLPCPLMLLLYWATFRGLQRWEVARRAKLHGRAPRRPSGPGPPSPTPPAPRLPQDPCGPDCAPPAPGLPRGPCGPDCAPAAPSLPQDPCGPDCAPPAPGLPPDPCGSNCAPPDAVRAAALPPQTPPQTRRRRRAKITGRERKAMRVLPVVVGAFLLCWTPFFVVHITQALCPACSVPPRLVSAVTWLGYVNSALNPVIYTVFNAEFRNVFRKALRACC

COc1cccc(C2(N3CCCCC3)CCCCC2)c1 | > 10 µM
COc1ccc(C2(N3CCCCC3)CCCCC2)cc1 | > 10 µM

*Q* State Ki (D4 (Homo sapiens)) of CCNC1(c2cccc(OC)c2)CCCCC1=O (racemic) .
*A* > 10 µM

---

measured.on: UniProt:P11229
Sequence (P11229 1-460): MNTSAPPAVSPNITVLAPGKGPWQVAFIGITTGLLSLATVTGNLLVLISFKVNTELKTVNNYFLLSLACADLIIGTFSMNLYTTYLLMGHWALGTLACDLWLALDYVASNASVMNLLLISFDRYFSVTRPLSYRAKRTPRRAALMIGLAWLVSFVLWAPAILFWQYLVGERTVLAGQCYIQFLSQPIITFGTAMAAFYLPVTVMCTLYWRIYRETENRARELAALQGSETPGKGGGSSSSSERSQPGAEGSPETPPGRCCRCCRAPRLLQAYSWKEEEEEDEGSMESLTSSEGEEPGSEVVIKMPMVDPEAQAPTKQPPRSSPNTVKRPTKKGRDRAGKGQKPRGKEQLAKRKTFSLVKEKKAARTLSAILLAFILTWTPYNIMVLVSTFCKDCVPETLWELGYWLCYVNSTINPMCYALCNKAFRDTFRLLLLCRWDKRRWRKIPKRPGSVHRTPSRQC
For each of the compounds below, state its Ki.

Please review the entries below; each comes with its answer.
COc1ccc(C2(N3CCCCC3)CCCCC2)cc1 [4-MeO-PCP] | > 10 µM
COc1cccc(C2(N3CCCCC3)CCCCC2)c1 [3-MeO-PCP] | > 10 µM

Here is another compound to look at.
*Q* State Ki (UniProt:P11229) of CCNC1(c2cccc(OC)c2)CCCCC1=O (racemic) [Methoxetamine] .
*A* > 10 µM

---

measured.on: NMDA Receptor (MK-801 binding site)
procedure.summary: PDSP radioligand binding, NMDA receptor
settings: Figure 3; N = 3 separate determinations; read-out: Ki in NMDA receptor assay
assay.readout: pKi
One number for each entry, as −log10 of the molar value.

*Q* Report pKi, nothing else, for this compound: CCNC1(c2cccc(OC)c2)CCCCC1=O (racemic) [Methoxetamine]
*A* 6.47

---

For each of the molecules below, state its Ki.
measured.on: Sigma2 (Homo sapiens, UniProt Q5BJF2)
procedure.summary: PDSP radioligand binding, Sigma2
settings: Sigma2 pKi +/− SD, Table 2

c1ccc(C2(N3CCCCC3)CCCCC2)cc1 [Phencyclidine, reference compound] | 151 nM

Here is another molecule to look at.
*Q* Report Ki, nothing else, for this molecule: `CCNC1(c2cccc(OC)c2)CCCCC1`
*A* 490 nM

---

pKi: −log10 of the molar value.
Lab note: pKi readings collected with KOR (Homo sapiens, UniProt P41145) for the following compounds.
Sequence (P41145 whole entry): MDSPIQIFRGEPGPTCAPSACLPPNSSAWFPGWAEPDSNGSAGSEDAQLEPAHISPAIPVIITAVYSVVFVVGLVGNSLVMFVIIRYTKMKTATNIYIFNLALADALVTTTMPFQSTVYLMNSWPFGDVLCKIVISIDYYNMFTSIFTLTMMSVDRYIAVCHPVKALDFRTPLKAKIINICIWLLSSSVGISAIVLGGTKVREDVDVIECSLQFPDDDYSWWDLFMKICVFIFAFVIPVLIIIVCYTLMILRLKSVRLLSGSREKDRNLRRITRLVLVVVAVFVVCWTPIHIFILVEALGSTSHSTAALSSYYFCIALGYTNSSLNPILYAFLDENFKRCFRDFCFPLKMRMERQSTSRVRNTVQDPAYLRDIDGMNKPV

Please review the entries below; each comes with its answer.
COc1cccc(C2(N3CCCCC3)CCCCC2)c1 [3-MeO-PCP] | < 5.00
CCNC1(c2cccc(OC)c2)CCCCC1=O (racemic) [Methoxetamine] | < 5.00

*Q* Report pKi, nothing else, for this compound: COc1ccc(C2(N3CCCCC3)CCCCC2)cc1 [4-MeO-PCP]
*A* < 5.00

---

Lab note: Ki readings collected with 5-HT6 (Homo sapiens, UniProt P50406) for the following molecules.
Sequence (P50406 whole entry, species assumed): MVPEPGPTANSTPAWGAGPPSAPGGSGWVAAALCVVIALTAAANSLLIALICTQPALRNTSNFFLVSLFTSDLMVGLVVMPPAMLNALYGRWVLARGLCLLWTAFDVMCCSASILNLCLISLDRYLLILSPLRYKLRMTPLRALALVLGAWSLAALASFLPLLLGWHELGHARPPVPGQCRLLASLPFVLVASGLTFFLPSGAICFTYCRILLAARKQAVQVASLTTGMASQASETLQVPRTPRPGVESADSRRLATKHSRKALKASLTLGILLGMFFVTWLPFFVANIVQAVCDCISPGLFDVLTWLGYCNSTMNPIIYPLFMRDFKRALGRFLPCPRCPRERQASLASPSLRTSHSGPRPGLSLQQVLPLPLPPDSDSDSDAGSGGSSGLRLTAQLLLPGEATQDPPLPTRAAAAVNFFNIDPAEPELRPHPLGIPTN

Here are 3 molecules. What values of Ki were reported for them?
1. CCNC1(c2cccc(OC)c2)CCCCC1=O (racemic) [Methoxetamine]
2. COc1ccc(C2(N3CCCCC3)CCCCC2)cc1 [4-MeO-PCP]
3. COc1cccc(C2(N3CCCCC3)CCCCC2)c1 [3-MeO-PCP]

*A*
> 10 µM
> 10 µM
> 10 µM

---

Lab note: Ki readings collected with 5-HT2C (Homo sapiens) for the following molecules.
Sequence (P28335 33-458, species assumed): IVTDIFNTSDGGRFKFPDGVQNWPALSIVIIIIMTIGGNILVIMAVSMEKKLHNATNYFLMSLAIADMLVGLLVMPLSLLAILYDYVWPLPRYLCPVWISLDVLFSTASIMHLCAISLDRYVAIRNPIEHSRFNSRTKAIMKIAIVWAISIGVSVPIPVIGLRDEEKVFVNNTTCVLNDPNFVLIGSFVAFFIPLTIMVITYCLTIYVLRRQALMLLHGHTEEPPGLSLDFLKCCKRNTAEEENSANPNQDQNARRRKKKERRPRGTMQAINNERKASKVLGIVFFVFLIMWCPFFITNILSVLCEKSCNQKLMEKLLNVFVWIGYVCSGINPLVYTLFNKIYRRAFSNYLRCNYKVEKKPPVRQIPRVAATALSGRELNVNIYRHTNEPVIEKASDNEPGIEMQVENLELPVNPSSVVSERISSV

COc1ccc(C2(N3CCCCC3)CCCCC2)cc1 | > 10 µM
CCNC1(c2cccc(OC)c2)CCCCC1=O (racemic) | > 10 µM

Here is another molecule to look at.
*Q* Report Ki, nothing else, for this molecule: `COc1cccc(C2(N3CCCCC3)CCCCC2)c1`
*A* > 10 µM

---

Lab note: Ki readings collected with 5-HT1B (Homo sapiens, UniProt P28222) for the following compounds.
Sequence (P28222 whole entry, species assumed): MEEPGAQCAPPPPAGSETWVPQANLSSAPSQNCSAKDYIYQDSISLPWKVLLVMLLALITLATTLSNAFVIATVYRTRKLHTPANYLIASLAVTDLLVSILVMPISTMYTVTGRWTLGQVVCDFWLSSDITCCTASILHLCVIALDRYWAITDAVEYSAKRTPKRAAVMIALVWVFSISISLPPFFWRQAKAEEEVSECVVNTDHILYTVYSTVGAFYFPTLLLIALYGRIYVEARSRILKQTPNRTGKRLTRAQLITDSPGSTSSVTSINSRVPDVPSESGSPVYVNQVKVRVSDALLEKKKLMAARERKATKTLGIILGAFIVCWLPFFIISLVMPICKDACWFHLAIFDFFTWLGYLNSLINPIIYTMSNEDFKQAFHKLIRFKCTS

Please review the entries below; each comes with its answer.
COc1cccc(C2(N3CCCCC3)CCCCC2)c1 [3-MeO-PCP] | > 10 µM
CCNC1(c2cccc(OC)c2)CCCCC1=O (racemic) [Methoxetamine] | > 10 µM

Here is another compound to look at.
*Q* Report Ki, nothing else, for this compound: COc1ccc(C2(N3CCCCC3)CCCCC2)cc1 [4-MeO-PCP]
*A* > 10 µM

---

Lab note: Ki readings collected with DOR (Homo sapiens) for the following compounds.
Sequence (P41143 whole entry): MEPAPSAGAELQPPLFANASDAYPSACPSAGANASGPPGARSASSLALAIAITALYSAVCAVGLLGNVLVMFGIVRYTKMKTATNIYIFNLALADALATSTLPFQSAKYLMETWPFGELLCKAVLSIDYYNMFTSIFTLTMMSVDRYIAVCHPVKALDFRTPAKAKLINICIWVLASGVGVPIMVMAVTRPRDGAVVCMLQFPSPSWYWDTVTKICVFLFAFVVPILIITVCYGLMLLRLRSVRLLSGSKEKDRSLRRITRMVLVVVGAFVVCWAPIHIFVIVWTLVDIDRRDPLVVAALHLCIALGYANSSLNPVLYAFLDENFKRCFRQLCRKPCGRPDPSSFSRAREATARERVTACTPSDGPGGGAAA

Please review the entries below; each comes with its answer.
CCNC1(c2cccc(OC)c2)CCCCC1=O (racemic) | > 10 µM
COc1cccc(C2(N3CCCCC3)CCCCC2)c1 | > 10 µM

Here is another compound to look at.
*Q* State Ki (DOR (Homo sapiens)) of `COc1ccc(C2(N3CCCCC3)CCCCC2)cc1` .
*A* > 10 µM

---

measured.on: 5-HT1D (Homo sapiens, UniProt P28221)
Sequence (P28221 whole entry, species assumed): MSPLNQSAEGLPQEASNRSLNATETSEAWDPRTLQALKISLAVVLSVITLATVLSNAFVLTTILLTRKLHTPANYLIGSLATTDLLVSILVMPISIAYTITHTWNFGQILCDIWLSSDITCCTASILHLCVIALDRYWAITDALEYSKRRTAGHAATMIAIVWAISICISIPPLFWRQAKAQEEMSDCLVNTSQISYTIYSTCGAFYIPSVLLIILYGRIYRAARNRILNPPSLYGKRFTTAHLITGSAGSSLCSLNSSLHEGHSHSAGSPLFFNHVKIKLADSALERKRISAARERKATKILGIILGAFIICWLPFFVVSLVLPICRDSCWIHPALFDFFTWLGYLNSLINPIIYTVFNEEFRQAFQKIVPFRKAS
pKi: −log10 of the molar value.
assay.readout: pKi

CCNC1(c2cccc(OC)c2)CCCCC1=O (racemic) [Methoxetamine] | < 5.00
COc1cccc(C2(N3CCCCC3)CCCCC2)c1 [3-MeO-PCP] | < 5.00

*Q* Report pKi, nothing else, for this compound: COc1ccc(C2(N3CCCCC3)CCCCC2)cc1 [4-MeO-PCP]
*A* < 5.00
